Provenance of the data: patent US20050137230A1

Biological target: factor Xa (Homo sapiens, UniProt P00742)
Sequence (P00742 235-488 limits assumed): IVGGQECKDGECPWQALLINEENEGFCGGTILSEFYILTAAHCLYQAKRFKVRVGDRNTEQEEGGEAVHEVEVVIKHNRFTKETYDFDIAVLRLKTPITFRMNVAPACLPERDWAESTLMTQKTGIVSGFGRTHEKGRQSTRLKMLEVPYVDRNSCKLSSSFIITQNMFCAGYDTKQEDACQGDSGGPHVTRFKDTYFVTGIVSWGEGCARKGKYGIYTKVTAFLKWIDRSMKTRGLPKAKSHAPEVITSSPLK
Sequence (P00742 41-179 partner limits assumed): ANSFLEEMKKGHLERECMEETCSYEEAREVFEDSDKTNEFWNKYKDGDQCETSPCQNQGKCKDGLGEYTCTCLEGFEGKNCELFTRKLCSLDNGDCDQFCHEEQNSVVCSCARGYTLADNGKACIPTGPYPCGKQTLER
Assay: inhibition of factor Xa
Type: biochemical
quantity measured: IC50 (µM)

Reference set, count: 3
compound	test system	quantity measured	units of measure	val
CS(=O)(=O)c1ccccc1-c1ccc(NC(=O)C(Cc2cccs2)NC(=O)Nc2ccccc2)cc1 (centres unmarked)	factor Xa (Homo sapiens, UniProt P00742)	IC50	µM	1.2
CC(C)C[C@@H](NC(=O)Nc1ccc(Cl)cc1)C(=O)NCC1CCN(c2ccncc2)CC1	factor Xa (Homo sapiens, UniProt P00742)	IC50	µM	0.41
CS(=O)(=O)c1ccccc1-c1ccc(NC(=O)C(NC(=O)Nc2ccccc2)c2ccccc2)cc1 (centres unmarked)	factor Xa (Homo sapiens, UniProt P00742)	IC50	µM	2.3

(P) O=C(Nc1ccc(Cl)cc1)OC(C(=O)NCC1CCN(c2ccncc2)CC1)c1ccccc1 (centres unmarked)
(Q) CCC[C@@H](NC(=O)Nc1ccccc1)C(=O)Nc1ccc(-c2ccccc2S(C)(=O)=O)cc1
Endpoint returns whichever of P and Q has the numerically higher IC50. Let me know the label of the one you choose. Q
(Q: 2 µM, P: 0.071 µM)
